Each recorded value in this set is attributed to ChEMBL document CHEMBL1201862.

Test system: Glucose-6-phosphate 1-dehydrogenase (Homo sapiens, UniProt P11413)
Sequence (P11413 whole entry): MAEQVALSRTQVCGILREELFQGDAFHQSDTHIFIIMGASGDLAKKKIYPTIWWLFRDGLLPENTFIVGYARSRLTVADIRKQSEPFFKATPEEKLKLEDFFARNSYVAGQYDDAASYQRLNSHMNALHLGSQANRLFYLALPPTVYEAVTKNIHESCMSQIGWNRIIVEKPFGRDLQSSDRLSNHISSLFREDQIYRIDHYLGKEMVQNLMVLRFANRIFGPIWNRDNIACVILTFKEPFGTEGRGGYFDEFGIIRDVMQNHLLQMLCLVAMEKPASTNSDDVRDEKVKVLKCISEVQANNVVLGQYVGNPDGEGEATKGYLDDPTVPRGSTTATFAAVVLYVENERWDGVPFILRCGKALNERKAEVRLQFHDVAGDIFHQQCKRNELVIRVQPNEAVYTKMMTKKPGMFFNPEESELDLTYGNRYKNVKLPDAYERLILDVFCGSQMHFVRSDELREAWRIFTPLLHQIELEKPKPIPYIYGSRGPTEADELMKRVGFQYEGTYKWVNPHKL
Assay text: human G6PD enzyme inhibitors, dose response, selectivity assay for P. falciparum G6PD inhibitor project, biochemical, fluorescence (AID 504792)
Assay type: functional
The source made the active and inactive calls.
Log the outcome using a class from active, inactive

Some solved cases for reference:
Compound	Label class
CCN(CC)c1ccc(NC(=O)c2ccccc2Br)cc1S(=O)(=O)Nc1ccccc1OC	inactive
CC1(OC(=O)C2CCCC2)C(=O)C=C2C=C(c3ccsc3)N(CCc3c[nH]c4ccccc34)C=C2C1=O (stereo not given)	inactive
NNC(=O)CN1C(c2ccccc2Br)=Nc2ccc(Br)cc2C1c1ccccc1 (stereo not given)	active

query: What classification did "CN1CC[C@@]2(C)c3cc(O)ccc3N(C)[C@@H]12" end up with in this test?
result: inactive

query: What classification did "Cc1no[n+]([O-])c1COc1cccc(/C=N/Nc2nncn2N)c1" end up with in this test?
result: inactive

---

Test system: High affinity choline transporter 1 (Homo sapiens)
Sequence (Q9GZV3 whole entry): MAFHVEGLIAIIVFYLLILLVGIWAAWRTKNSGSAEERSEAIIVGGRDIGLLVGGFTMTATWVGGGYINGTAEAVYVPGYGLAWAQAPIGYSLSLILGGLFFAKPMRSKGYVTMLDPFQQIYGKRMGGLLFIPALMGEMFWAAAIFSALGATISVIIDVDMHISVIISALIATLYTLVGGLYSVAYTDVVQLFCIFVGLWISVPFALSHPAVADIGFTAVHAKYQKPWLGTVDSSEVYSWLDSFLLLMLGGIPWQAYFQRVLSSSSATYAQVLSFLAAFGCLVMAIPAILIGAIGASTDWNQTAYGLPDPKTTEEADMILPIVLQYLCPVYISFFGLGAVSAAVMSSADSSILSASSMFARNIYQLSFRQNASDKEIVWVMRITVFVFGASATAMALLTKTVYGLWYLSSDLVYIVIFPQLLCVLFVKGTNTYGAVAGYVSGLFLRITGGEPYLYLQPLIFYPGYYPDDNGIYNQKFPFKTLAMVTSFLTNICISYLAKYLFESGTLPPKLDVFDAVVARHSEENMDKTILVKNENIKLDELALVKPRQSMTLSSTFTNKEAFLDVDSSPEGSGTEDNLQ
Assay text: CHT inhibitors, dose response, cell-based, 5-point CRC, membrane potential dye (AID 504840)
Type: functional
Active and inactive are the calls of the source.
Outcome measure: IC50

Compound	IC50
CC1CCC(NC(=O)c2ccc(NC(=O)CC3SC(N4CCCC4)=NC3=O)cc2)CC1 (stereo unspecified)	14.5 µM (active)
CCOC(=O)c1sc(=S)n(-c2ccccc2)c1N(C(C)=O)C(C)=O	8.98 µM (active)
CC1=NN(C(N)=S)C(=O)C1N=Nc1c(Br)cc(Br)cc1Br (stereo unspecified)	12 µM (active)
Cc1c(C(=O)Nc2ccc(S(=O)(=O)NCC3CCCO3)cc2)cccc1[N+](=O)[O-] (stereo unspecified)	14.5 µM (active)
CCCn1c2ccccc2c2cnn(CC(=O)NCCCN3CCN(c4ccccc4)CC3)c(=O)c21	2.49 µM (active)

Consider the record given below.
query: // IC50 lookup, key: "O=C(Nc1ccc(S(=O)(=O)N2CCOCC2)cc1)c1ccc([N+](=O)[O-])cc1Cl"
result: 15.1 µM (active)

---

Let's look at some molecules and their measured EC50.
Test system: UniProt:P38532
Sequence (P38532 whole entry): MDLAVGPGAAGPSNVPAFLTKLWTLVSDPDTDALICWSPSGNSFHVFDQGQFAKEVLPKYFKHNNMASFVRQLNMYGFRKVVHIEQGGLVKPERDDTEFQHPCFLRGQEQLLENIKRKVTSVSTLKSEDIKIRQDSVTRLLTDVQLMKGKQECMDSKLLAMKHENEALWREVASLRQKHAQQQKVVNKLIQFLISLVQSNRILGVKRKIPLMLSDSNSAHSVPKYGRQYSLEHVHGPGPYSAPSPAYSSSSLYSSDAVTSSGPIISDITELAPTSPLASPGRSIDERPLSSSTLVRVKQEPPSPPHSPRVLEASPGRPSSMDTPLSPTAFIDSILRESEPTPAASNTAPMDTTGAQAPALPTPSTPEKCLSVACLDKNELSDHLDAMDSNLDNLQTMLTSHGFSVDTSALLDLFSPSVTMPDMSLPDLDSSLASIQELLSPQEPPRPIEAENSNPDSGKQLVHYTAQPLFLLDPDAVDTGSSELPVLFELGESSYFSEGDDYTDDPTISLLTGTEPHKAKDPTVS
Assay text: inhibition of MG132-induced HSE-luciferase signal, confirmation, cell-based, NIH3T3, luminescence, dose retest (AID 2382);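 also: NIH3T3 fibroblasts with HSF1-driven luciferase reporter stressed by proteasome inhibitor MG132; luminescence from HSF1-driven luciferase expression after 8 hours of MG132 stress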
Assay type: functional
Active and inactive are the calls of the source.

Molecule	Reported value
C=CCn1c(CCCNC(=O)C(C)(C)C)nc2ccccc21	> 195 µM (not active)
CC(C)Sc1nc2sccc2c(=O)n1-c1ccccc1	> 195 µM (not active)

query: // EC50 lookup, key: "Cc1nn(CC(=O)NCCCN2CCC(Cc3ccccc3)CC2)c(=O)c2cc(-c3ccccc3)nn12"
result: > 195 µM (not active)

query: // EC50 lookup, key: Cc1ccc(C2N(c3ccccc3)C(=S)N3CCCN23)cc1 (configuration not stated)
result: > 195 µM (not active)

query: // EC50 lookup, key: "O=C(Cc1ccccc1F)Nc1ccc(S(=O)(=O)N2CCCCC2)cc1"
result: > 195 µM (not active)

query: // EC50 lookup, key: "COc1cc(SC)ccc1C(=O)OCC(=O)NC1CCCC1"
result: > 195 µM (not active)

query: // EC50 lookup, key: CC1=C(C(=O)OCc2ccc3c(c2)OCO3)C(c2ccc(F)cc2)NC(=O)N1 (configuration not stated)
result: < 0.16 µM (active)
